Would you kindly list IC50 for each of these compounds?
molecular target: CRBN/DDB1 (Homo sapiens (Human), UniProt Q96SW2); experiment: HTRF binding assay to CRBN/DDB1; conditions: read-out: CRBN HTRF IC50
Sequence (Q96SW2 whole entry): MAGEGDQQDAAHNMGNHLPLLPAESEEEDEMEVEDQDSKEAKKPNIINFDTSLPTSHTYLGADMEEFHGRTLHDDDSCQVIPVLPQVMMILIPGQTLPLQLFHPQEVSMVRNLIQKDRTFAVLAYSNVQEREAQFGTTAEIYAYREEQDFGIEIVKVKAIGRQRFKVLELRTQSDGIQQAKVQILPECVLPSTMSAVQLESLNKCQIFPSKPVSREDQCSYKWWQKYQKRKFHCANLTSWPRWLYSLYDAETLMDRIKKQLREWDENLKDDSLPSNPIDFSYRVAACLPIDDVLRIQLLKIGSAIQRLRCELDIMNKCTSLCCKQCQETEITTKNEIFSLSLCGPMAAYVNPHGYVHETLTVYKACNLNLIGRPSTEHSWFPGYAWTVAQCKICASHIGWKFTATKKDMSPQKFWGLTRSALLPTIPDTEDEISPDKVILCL
Sequence (Q16531 whole entry partner): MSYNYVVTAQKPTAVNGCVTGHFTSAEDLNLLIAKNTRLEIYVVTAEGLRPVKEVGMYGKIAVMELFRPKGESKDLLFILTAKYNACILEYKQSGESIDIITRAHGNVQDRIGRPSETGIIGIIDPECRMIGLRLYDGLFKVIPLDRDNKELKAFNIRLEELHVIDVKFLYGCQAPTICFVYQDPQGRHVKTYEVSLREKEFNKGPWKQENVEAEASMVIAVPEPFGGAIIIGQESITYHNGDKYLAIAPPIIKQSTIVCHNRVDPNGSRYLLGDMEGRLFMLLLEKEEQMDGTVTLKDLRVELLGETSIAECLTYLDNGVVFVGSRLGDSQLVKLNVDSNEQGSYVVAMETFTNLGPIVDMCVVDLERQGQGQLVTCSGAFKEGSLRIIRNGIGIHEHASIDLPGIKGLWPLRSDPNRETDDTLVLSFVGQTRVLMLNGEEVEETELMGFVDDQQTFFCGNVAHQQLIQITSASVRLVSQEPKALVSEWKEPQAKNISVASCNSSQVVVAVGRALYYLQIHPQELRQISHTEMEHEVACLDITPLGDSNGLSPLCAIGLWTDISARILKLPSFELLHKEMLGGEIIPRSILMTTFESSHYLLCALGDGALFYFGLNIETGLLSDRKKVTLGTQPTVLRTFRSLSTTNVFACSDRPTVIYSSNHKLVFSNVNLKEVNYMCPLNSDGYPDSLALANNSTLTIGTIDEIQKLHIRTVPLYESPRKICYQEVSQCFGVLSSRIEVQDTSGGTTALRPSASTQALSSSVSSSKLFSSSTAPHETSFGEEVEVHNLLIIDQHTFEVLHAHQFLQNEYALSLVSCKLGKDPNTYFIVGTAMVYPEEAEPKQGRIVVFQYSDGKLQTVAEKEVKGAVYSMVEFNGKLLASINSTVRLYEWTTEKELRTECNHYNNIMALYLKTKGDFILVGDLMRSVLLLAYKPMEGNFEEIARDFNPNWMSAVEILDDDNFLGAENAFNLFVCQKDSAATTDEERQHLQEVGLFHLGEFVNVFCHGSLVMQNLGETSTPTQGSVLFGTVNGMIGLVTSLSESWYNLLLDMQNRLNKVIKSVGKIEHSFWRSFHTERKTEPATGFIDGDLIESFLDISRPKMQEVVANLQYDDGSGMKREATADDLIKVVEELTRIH

Lab book: IC50 of COc1cc(N2CCC(CN3CCN4c5ccc6c(c5OC[C@H]4C3)CN(C3CCC(=O)NC3=O)C6=O)CC2)ccc1[C@@H]1c2ccc(O)cc2OC[C@@H]1c1ccccc1 (single isomer, unassigned) noted as 500 to 5000 nM

Lab book: IC50 of COc1cc(N2CCC(CN3CCN4c5ccc6c(c5OC[C@H]4C3)CN(C3CCC(=O)NC3=O)C6=O)CC2)ccc1[C@H]1c2ccc(O)cc2OC[C@H]1c1ccccc1 (stereo partly drawn) noted as 50 to 500 nM

Lab book: IC50 of COc1cc(C(=O)NC2CCC(=O)NC2=O)ncc1N1CCN(CC2CCC3(CC2)CN(c2ccc([C@H]4c5ccc(O)cc5OC[C@H]4c4ccccc4)cc2)C3)CC1 (mixture of isomers) noted as 500 to 5000 nM
